Reported IC50 values for a set of compounds
target: Urokinase-type plasminogen activator (Homo sapiens, UniProt P00749); assay: Inhibition of human plasma urokinase using Glu-Gly-Arg-pNA (S-2444) peptide as substrate assessed as reduction of enzyme hydrolytic activity
ASSAY ENDPOINT: IC50

* Cn1c(CN2C(=O)CN(c3ccc(OCc4ccncc4)c(C(N)=O)c3)C2=O)cc2cnc(C(=O)N[C@H](C#N)CCCCN)nc21 | > 1000 µM
* Cn1c(CN2C(=O)CN(c3cccc(S(N)(=O)=O)c3)C2=O)cc2cnc(C(=O)N[C@H](C#N)CCCCN)nc21 | > 1000 µM
* COc1ccc(N2CC(=O)N(Cc3cc4cnc(C(=O)N[C@H](C#N)CCCCN)nc4n3C)C2=O)cc1 | > 1000 µM
* Cn1c(CN2C(=O)CN(c3ccc(Oc4ccccc4)cc3)C2=O)cc2cnc(C(=O)N[C@H](C#N)CCCCN)nc21 | > 400 µM
* CN1CC(=O)N(Cc2cc3cnc(C(=O)N[C@H](C#N)CCCCN)nc3n2C)C1=O | > 1000 µM
* CCCc1ccc(N2CC(=O)N(Cc3cc4cnc(C(=O)N[C@H](C#N)CCCCN)nc4n3C)C2=O)cc1 | > 1000 µM
* Cn1c(CN2C(=O)CN(c3ccc(Oc4ccc5ncccc5c4)cc3)C2=O)cc2cnc(C(=O)N[C@H](C#N)CCCCN)nc21 | > 400 µM
* Cn1c(CN2C(=O)CN(c3ccc(Oc4ccccc4C(N)=O)cc3)C2=O)cc2cnc(C(=O)N[C@H](C#N)CCCCN)nc21 | > 1000 µM

// data source = ChEMBL document CHEMBL3232735
